Cited source: patent US20230286946A1

- measuredTarget: α5ß2 γ2 GABAA Receptor (Homo sapiens, UniProt P18507+P31644)
- Sequence (P31644 32-462): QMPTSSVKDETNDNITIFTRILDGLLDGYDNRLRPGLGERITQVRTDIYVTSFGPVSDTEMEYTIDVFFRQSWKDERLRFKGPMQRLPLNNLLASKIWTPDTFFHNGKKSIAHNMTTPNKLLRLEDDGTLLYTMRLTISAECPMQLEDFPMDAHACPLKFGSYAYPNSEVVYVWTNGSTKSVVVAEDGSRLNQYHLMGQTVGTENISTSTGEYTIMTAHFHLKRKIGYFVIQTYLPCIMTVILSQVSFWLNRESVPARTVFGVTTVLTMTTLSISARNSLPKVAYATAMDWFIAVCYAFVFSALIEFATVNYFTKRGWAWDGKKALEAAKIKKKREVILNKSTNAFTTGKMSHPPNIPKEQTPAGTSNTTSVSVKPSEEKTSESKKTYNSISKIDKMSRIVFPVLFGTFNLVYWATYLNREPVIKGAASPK
- Sequence (P18507 40-376 limits assumed): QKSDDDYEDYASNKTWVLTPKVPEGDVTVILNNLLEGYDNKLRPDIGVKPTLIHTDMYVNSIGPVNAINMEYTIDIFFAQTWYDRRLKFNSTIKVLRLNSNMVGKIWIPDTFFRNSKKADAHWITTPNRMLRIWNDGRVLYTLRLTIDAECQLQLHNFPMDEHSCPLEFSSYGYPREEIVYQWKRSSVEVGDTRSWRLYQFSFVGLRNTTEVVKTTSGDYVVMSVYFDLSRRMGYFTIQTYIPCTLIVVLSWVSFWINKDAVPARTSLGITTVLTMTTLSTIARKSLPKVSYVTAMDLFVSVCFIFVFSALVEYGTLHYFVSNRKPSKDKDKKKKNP
- assayOverview: Assay B: in vitro evaluation of modulation of α5ß2γ2 GABAA receptor, two-electrode voltage clamp in oocytes
- Assay type: cell-based
- Method: Assay B: In Vitro Evaluation of Modulation of α5ß2 γ2 GABAA Receptor. Modulatory efficacy of compounds of formular (I) is determined electrophysiological recordings in oocytes using the two-electrode voltage clamp (TEVC) technique. Oocytes are injected with cRNA for human GABAA receptor subunits α5, ß2 and γ2 in a 3:1:3 ratio and modulatory efficacy is evaluated by co-applications with a submaximal EC5-20 GABA concentration (0.5 μM) termed GABA control. […]
readoutType: Assay B: GABAA α 5 β 3 γ 2 Emax vs GABA (%)
Give bare numbers, in %.

Dear reader, for each entry below, please note its Assay B: GABAA α 5 β 3 γ 2 Emax vs GABA.
1. Cc1nnn(-c2ccc(C(F)F)cn2)c1COc1ccc(-c2ccnnc2)nn1 [Example 17]
2. Cn1nnc(-c2ccc(C(F)F)cn2)c1COc1ccc(-n2cccn2)nn1 [Example 50]

-33.2
-13.7
